- test details: soluble on expression in E. coli; label from the status in PepcDB or PDB records
measurement label: soluble on expression in E. coli

{"query sequence": "MPKIAEIEGTPNPNALKFVLKEPLTWGVAKSYDHAEQAVDDPLAAALFDIDHVTNVFYVDRWITITQDGGADWQDLAREVADPIRAAPAATDQSAAVVAAASRTLADLSEEDQQRLERINILLDEEVRPFLQHDGGDLHVLALEGNILRIHYQGACGTCPSSISGTLRGIEQLLRTIEPDIRVVSA", "measurement": "not soluble"}
{"query sequence": "MGHHHHHHSHMKRMAENELSRSVNEFLSKLQDDLKEAMNTMMCSRCQGKHRRFEMDREPKSARYCAECNRLHPAEEGDFWAESSMLGLKITYFALMDGKVYDITEWAGCQRVGISPDTHRVPYHISFGSRIPGTRGRQRATPDAPPADLQDFLSRIFQVPPGQMPMGTSLQLLSLPLEPLQPLSPTAQYPREKPNLSGGRK", "measurement": "not soluble"}

###

- test details: soluble on expression in E. coli; label from the status in PepcDB or PDB records
measurement label: soluble on expression in E. coli

{"query sequence": "MRHSFFCIDSHTCGNPVRLVAGGGPLLPHLPISERRDLFVRNHDWVRQALMFEPRGHDIMSGAVIYPAYRDDCDFAVIFIEVSGCLPMCGAGTIGLVTAAIEEGLVTPRIPGRLSIETPAGKVDIQYDKPGEFVESVRIFNVASYLHAADVEVNVPGLGKLVVDIAYGGNYYAVIEPQVGWPGLDGMTAGDVVDLSQKLRDALGTICDPVHPDDERIRGVHHAIWCDRPVSAEADGRGAVFYGDKAIDRSPGGTGTSARMAQLHGKGRLKAGETFRQESLIGTIFEGKVEEETTVGSFSGIRPSIGGWARIIGHNTIFVDDRDPLAHGFQVRLEHHHHHH", "measurement label": "soluble on expression in E. coli", "measurement": "not soluble"}
{"query sequence": "MGSDKIHHHHHHMIIMRFLIKVKPEERKFRVPYNHQYFLQGLIYNRIKLTNPRLSTFLHETKGPKLFTYSLFMTERREHPKGLPYFLGYRRGFFYFSTCIPEIAEAFITGLFREPEITLWGEKFYLEEVKTLKEPKKFSGSTFITLSPIAVTMEKGGKRYDVSPLEEEFYALIRENLKDKYVMIKGEKPPDDFEMEIIAAKPKRFEVKPGIYQMAWHLVFRAYGDDELIRVGYVVGFGEKNSLGFGMVKVDEQRKRRKNIGSFQESMSFNENRELETGT", "measurement label": "soluble on expression in E. coli", "measurement": "not soluble"}

###

- test details: soluble on expression in E. coli; label from the status in PepcDB or PDB records

{"query sequence": "MGSDKIHHHHHHMGQSSEDAAMTLQPFDGFGLGLRPPHYRAFLDSERPLVDFVEVISENFMVGGGRPLHVIDAVRERYPVALHGVSMSVGSADGVKLDYLRRLKGLADRVDPMWVSDHLCWTGVEGFNSHDLLPVPYTEEAMAVVCANIALAQDVLERPLLLENPSSYVTFANDAMAEHQFLAEMCARTGCYLLLDINNIYVSASNHGFDPYEYLAAVPVDRVLQIHLAGHSQGRELLIDTHDQPVPDSVWALYEAAAGRFGPVAAMIERDDDIPPLDDLLAELDVARARWAAGRRGSLAA", "soluble on expression in E. coli": "not soluble"}
{"query sequence": "MNHNDVLRSLRYMLKVNDAKMAEIIGLSGLEVHPLVLATYLKKEEEEGFVRCPERVMAHFLDGLVIYRRGKDESRPQQPIELPVTNNLILKKLRVAFELKEDDLHAILKSVNFPVSKPELSALFRKAGHDNYRPCGDQLMRNFLKGLTLRVRG", "soluble on expression in E. coli": "not soluble"}
